B1: tRNA (parent)
chain: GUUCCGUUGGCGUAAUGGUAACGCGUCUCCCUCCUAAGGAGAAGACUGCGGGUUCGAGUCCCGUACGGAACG

variants of: B1; experiment: yeast fitness relative to wild type (ratio to wild type); higher = fitter; tRNA-Arg(CCU), competitive growth, 37 C, YPD
Fewer inactive variants are shown than the library holds.
// label = Condition met if yeast fitness is not less than 0.6, otherwise Condition not met

## Input Does the variant A14U G23A U32C have recorded yeast fitness that is 0.6 or more?
## Output Condition not met

## Input Does the variant A40U C60U have recorded yeast fitness that is 0.6 or more?
## Output Condition met

## Input Does the variant C34U G44C U47G A65C C66G have recorded yeast fitness that is 0.6 or more?
## Output Condition not met

## Input Does the variant U28G A40U A43U have recorded yeast fitness that is 0.6 or more?
## Output Condition met

## Input Does the variant C4A C34G C66U have recorded yeast fitness that is 0.6 or more?
## Output Condition not met

## Input Does the variant C11U U16C C33A U53C C66G G67U have recorded yeast fitness that is 0.6 or more?
## Output Condition not met

## Input Does the variant C31U G58A A65C have recorded yeast fitness that is 0.6 or more?
## Output Condition met

## Input Does the variant G17C C27U C61A have recorded yeast fitness that is 0.6 or more?
## Output Condition not met

## Input Does the variant G12C A14G G25A G41C C61U G67A have recorded yeast fitness that is 0.6 or more?
## Output Condition not met

## Input Does the variant A21G A36G C60U have recorded yeast fitness that is 0.6 or more?
## Output Condition not met

## Input Does the variant C4A A15G G17A U32C C62A A69U have recorded yeast fitness that is 0.6 or more?
## Output Condition not met

## Input Does the variant C5U U26C have recorded yeast fitness that is 0.6 or more?
## Output Condition met

## Input Does the variant U26A A57G C60U have recorded yeast fitness that is 0.6 or more?
## Output Condition not met

## Input Does the variant C5A G51A C61A have recorded yeast fitness that is 0.6 or more?
## Output Condition not met

## Input Does the variant U3C C4G A42G A45U C66U have recorded yeast fitness that is 0.6 or more?
## Output Condition not met

## Input Does the variant G10A C31U A40C G48A have recorded yeast fitness that is 0.6 or more?
## Output Condition not met

## Input Does the variant U26A C62A have recorded yeast fitness that is 0.6 or more?
## Output Condition met

## Input Does the variant C5U G48A C55U A65C have recorded yeast fitness that is 0.6 or more?
## Output Condition not met

## Input Does the variant U16A A20G C34U G56C have recorded yeast fitness that is 0.6 or more?
## Output Condition not met

## Input Does the variant G9A C11A G38C C60G have recorded yeast fitness that is 0.6 or more?
## Output Condition not met

## Input Does the variant G12C U16A C60G C61U have recorded yeast fitness that is 0.6 or more?
## Output Condition not met

## Input Does the variant A21C C27G G39C have recorded yeast fitness that is 0.6 or more?
## Output Condition not met

## Input Does the variant C4U A42G C66A have recorded yeast fitness that is 0.6 or more?
## Output Condition not met

## Input Does the variant U2G C29G A43C have recorded yeast fitness that is 0.6 or more?
## Output Condition not met

## Input Does the variant A21U C49U U54A U64C have recorded yeast fitness that is 0.6 or more?
## Output Condition not met

## Input Does the variant C33U G39A A57G C66U have recorded yeast fitness that is 0.6 or more?
## Output Condition not met

## Input Does the variant C4G C11A U35A A45G C49U U59G G67U have recorded yeast fitness that is 0.6 or more?
## Output Condition not met

## Input Does the variant A42C C55A A65U have recorded yeast fitness that is 0.6 or more?
## Output Condition not met

## Input Does the variant A15G U54G C55U have recorded yeast fitness that is 0.6 or more?
## Output Condition not met

## Input Does the variant U2G A45U C46G A69C have recorded yeast fitness that is 0.6 or more?
## Output Condition not met

## Input Does the variant A14G C31U C33U A45C G48A have recorded yeast fitness that is 0.6 or more?
## Output Condition met

## Input Does the variant G17A G56C G58C G68A have recorded yeast fitness that is 0.6 or more?
## Output Condition not met

## Input Does the variant G9A A20U C66U have recorded yeast fitness that is 0.6 or more?
## Output Condition not met

## Input Does the variant U19A A36G U59A have recorded yeast fitness that is 0.6 or more?
## Output Condition not met

## Input Does the variant C33G A70G have recorded yeast fitness that is 0.6 or more?
## Output Condition met

## Input Does the variant G6C G39C A45U C61U have recorded yeast fitness that is 0.6 or more?
## Output Condition not met

## Input Does the variant C24G C31A C33U U35A A57G have recorded yeast fitness that is 0.6 or more?
## Output Condition not met

## Input Does the variant U35C A45G C62A have recorded yeast fitness that is 0.6 or more?
## Output Condition not met

## Input Does the variant G41A A42U G50C A70G have recorded yeast fitness that is 0.6 or more?
## Output Condition not met

## Input Does the variant C34U C49U C55U G67A have recorded yeast fitness that is 0.6 or more?
## Output Condition not met

## Input Does the variant C4U C55U C66A have recorded yeast fitness that is 0.6 or more?
## Output Condition not met

## Input Does the variant A21U C24G C62G C66U have recorded yeast fitness that is 0.6 or more?
## Output Condition not met

## Input Does the variant C22U C30U A37G G48C C55G have recorded yeast fitness that is 0.6 or more?
## Output Condition not met

## Input Does the variant G6A C11A U32A C34G G58A have recorded yeast fitness that is 0.6 or more?
## Output Condition not met

## Input Does the variant C4G U8A C31G have recorded yeast fitness that is 0.6 or more?
## Output Condition not met

## Input Does the variant C4G A14U A21C have recorded yeast fitness that is 0.6 or more?
## Output Condition met

## Input Does the variant A14C C22G G25C G44A C61G have recorded yeast fitness that is 0.6 or more?
## Output Condition not met

## Input Does the variant U3A A42C A65U C66U G67C have recorded yeast fitness that is 0.6 or more?
## Output Condition not met

## Input Does the variant U3C A40G C46A A65G have recorded yeast fitness that is 0.6 or more?
## Output Condition met

## Input Does the variant A21C C27U C33U have recorded yeast fitness that is 0.6 or more?
## Output Condition not met

## Input Does the variant U7A G23C A45G C60G have recorded yeast fitness that is 0.6 or more?
## Output Condition not met

## Input Does the variant A21C A37G C49A C60G C66A have recorded yeast fitness that is 0.6 or more?
## Output Condition not met

## Input Does the variant C5G C29A U53C C62A G67A have recorded yeast fitness that is 0.6 or more?
## Output Condition not met

## Input Does the variant C24A C55A A65G have recorded yeast fitness that is 0.6 or more?
## Output Condition not met

## Input Does the variant G12C C33A A42G have recorded yeast fitness that is 0.6 or more?
## Output Condition met

## Input Does the variant U8A C27U A43U have recorded yeast fitness that is 0.6 or more?
## Output Condition not met

## Input Does the variant G18C C29G A36C G44C G50A C66A have recorded yeast fitness that is 0.6 or more?
## Output Condition not met

## Input Does the variant U3C U7C U8A A15U G50A U53A have recorded yeast fitness that is 0.6 or more?
## Output Condition not met

## Input Does the variant U16G A42U have recorded yeast fitness that is 0.6 or more?
## Output Condition met

## Input Does the variant C46G C60A G67U have recorded yeast fitness that is 0.6 or more?
## Output Condition not met

## Input Does the variant C34U A42U have recorded yeast fitness that is 0.6 or more?
## Output Condition met

## Input Does the variant C4G C29A G50A have recorded yeast fitness that is 0.6 or more?
## Output Condition not met

## Input Does the variant A37C A70U have recorded yeast fitness that is 0.6 or more?
## Output Condition met

## Input Does the variant G10C C11A A37C C49G G68C A69G have recorded yeast fitness that is 0.6 or more?
## Output Condition not met

## Input Does the variant C27A A42U have recorded yeast fitness that is 0.6 or more?
## Output Condition met

## Input Does the variant U2A U26C C33G A42C C49G G58C C62G have recorded yeast fitness that is 0.6 or more?
## Output Condition not met

## Input Does the variant A40G C46U U53G have recorded yeast fitness that is 0.6 or more?
## Output Condition not met

## Input Does the variant U32C G51A A70U have recorded yeast fitness that is 0.6 or more?
## Output Condition met

## Input Does the variant U2A U3A U16C C24U A69U have recorded yeast fitness that is 0.6 or more?
## Output Condition not met

## Input Does the variant C24U C61A G67A have recorded yeast fitness that is 0.6 or more?
## Output Condition not met

## Input Does the variant U7A G23A C24U U35A C60A have recorded yeast fitness that is 0.6 or more?
## Output Condition met

## Input Does the variant C5U A14G A40G have recorded yeast fitness that is 0.6 or more?
## Output Condition met

## Input Does the variant C29U C33U A42C have recorded yeast fitness that is 0.6 or more?
## Output Condition met

## Input Does the variant U3C U7A A42C C49U C55U have recorded yeast fitness that is 0.6 or more?
## Output Condition not met

## Input Does the variant A37C A43U G52A C62A C66A have recorded yeast fitness that is 0.6 or more?
## Output Condition not met

## Input Does the variant A40U G44C have recorded yeast fitness that is 0.6 or more?
## Output Condition met

## Input Does the variant G6A A20U C46A C55G have recorded yeast fitness that is 0.6 or more?
## Output Condition not met

## Input Does the variant C11U A36U G58A G67C have recorded yeast fitness that is 0.6 or more?
## Output Condition not met

## Input Does the variant A20G U26A A70U have recorded yeast fitness that is 0.6 or more?
## Output Condition met

## Input Does the variant G25C C49U U54G have recorded yeast fitness that is 0.6 or more?
## Output Condition not met

## Input Does the variant C33A C34A have recorded yeast fitness that is 0.6 or more?
## Output Condition met

## Input Does the variant C61G A70G have recorded yeast fitness that is 0.6 or more?
## Output Condition met

## Input Does the variant C22G C60G C66A have recorded yeast fitness that is 0.6 or more?
## Output Condition not met

## Input Does the variant A14C A20U G25C A43C C66U have recorded yeast fitness that is 0.6 or more?
## Output Condition not met

## Input Does the variant U2A G41C G50C C62G C66G have recorded yeast fitness that is 0.6 or more?
## Output Condition not met
